molecular target: natural β-amyloid peptide β-AP1-40 (human); experiment: cell-based or functional assay
Sequence (peptide, as listed by the source): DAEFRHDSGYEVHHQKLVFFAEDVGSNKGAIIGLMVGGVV
Ends that are not written are not given here. * marks the point of attachment. iminobiotinyl = N=C1N[C@H]2[C@H](CS[C@H]2CCCCC(=O)*)N1
Below: a set of entries, each annotated with reported Fold Increase in Lag Time; nucleation assay; 100 mole %.
Write the number in fold without appending the unit.

binder: iminobiotinyl-EVHHQKLVFFAEDVG [iminobiotinyl-Aβ11-25]
quantityUnit: fold
numericValue: 1.2

Here is another binder to look at.
The binder listed as iminobiotinyl-SNKGAIIGLMVGGVV [iminobiotinyl-Aβ26-40] shows Fold Increase in Lag Time; nucleation assay; 100 mole % equal to 2.3
